# TESTED_SYSTEM: human PDE10A full length (Homo sapiens, UniProt Q9Y233)
# Sequence (Q9Y233 1-779 isoform Q9Y233-1): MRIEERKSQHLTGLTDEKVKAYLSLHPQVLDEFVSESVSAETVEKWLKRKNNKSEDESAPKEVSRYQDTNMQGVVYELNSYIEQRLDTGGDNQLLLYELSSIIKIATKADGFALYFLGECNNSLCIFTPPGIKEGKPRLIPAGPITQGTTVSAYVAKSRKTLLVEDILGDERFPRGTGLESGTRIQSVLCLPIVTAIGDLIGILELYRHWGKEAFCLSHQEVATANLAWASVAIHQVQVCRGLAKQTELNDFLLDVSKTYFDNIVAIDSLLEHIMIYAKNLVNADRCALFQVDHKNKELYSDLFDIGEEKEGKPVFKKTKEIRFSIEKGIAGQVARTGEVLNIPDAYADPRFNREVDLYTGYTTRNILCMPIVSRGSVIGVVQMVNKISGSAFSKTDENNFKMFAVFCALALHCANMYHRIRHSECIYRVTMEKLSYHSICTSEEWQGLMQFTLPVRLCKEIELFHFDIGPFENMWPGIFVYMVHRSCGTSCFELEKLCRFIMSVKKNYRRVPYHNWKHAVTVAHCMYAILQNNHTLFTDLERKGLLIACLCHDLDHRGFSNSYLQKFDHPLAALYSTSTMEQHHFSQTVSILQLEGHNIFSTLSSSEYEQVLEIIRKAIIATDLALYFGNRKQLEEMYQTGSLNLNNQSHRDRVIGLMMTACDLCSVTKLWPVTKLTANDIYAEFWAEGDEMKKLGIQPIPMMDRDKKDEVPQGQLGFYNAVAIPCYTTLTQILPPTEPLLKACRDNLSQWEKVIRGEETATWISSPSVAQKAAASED
So basically, if IC50 comes in under 5 nM it's 1, and if it's 5 nM or more it's 0.

Worked set:
CN(CCF)c1nc2cc(NC(=O)c3c(C(=O)N4CCOCC4)cnn3C)ccn2n1
0
CN(c1nc2cc(NC(=O)c3c(C(=O)O)cnn3C)ccn2n1)C1CC1
0
CCNC(=O)c1cnn(C)c1C(=O)Nc1ccn2nc(-c3ccccc3)nc2c1
1

Lookup: # strict comparison: is reported IC50 < 5 nM? input = "COC1CN(C(=O)c2cnn(C)c2C(=O)Nc2ccn3nc(-c4cccc(F)c4)nc3c2)C1"
Found: 1
